- Target Under Test: T1, CRBN, Q96SW2;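 note: pooled lentiviral library of zinc finger degron-EGFP fusions in mCherry-positive Jurkat cells, FACS-sorted after compound exposure, with degron abundance counted by next-generation sequencing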
- T1 chain: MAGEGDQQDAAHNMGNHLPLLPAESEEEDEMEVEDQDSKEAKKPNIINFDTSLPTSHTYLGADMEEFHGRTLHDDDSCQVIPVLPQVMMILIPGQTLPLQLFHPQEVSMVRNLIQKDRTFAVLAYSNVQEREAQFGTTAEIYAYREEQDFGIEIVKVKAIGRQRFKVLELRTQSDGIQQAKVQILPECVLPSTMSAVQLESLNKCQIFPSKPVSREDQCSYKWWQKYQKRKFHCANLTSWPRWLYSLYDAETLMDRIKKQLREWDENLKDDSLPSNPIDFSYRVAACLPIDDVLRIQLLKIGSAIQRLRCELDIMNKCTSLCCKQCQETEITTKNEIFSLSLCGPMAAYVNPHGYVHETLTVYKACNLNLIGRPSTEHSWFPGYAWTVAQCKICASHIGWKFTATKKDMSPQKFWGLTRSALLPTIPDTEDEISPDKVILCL
- Assay Remarks: log2 fold change of degron read counts, EGFP-low vs EGFP+ sorted cells (limma voom), compound-induced degradation; higher = more compound-induced degradation of the degron-EGFP fusion; degrons are variants of IKZF1/3 zinc finger 2; compound dose not given here
- Condition Notes: Jurkat; 18 h; compound: compound 19 (5-tert-butyl-thalidomide)
In all, about 8,300 sequences were measured (“log2 fold change of degron read counts, EGFP-low vs EGFP+ sorted cells (limma voom), compound-induced degradation”: median about -1.1, highest 2% from about 3.2 on). The entries come from a sample that favours the highest values as a whole.
In this section, each of the sequences is paired with its reported log2 fold change of degron read counts.
Respond with the number and no other words.

Reference set (5 entries):
{"Entry Sequence": "FFCPICGAQFTQKGNLLRHIKL [46F_47F_49P_50I_52G_53A_54Q_55F_67L_, Q9UKT9]", "Assay Result": 3.07}
{"Entry Sequence": "FVCPICGAQFTQKGNLLRHIKL [46F_47V_49P_50I_52G_53A_54Q_55F_67L_, Q9UKT9]", "Assay Result": 0.269}
{"Entry Sequence": "FICPICGAQFTQKGNLLRHIKL [46F_47I_49P_50I_52G_53A_54Q_55F_67L_, Q9UKT9]", "Assay Result": -0.147}
{"Entry Sequence": "FKCPICGAQFTQKGNLLRHIKL [46F_47K_49P_50I_52G_53A_54Q_55F_67L_, Q9UKT9]", "Assay Result": -0.0361}
{"Entry Sequence": "FKCEQCGAQFTQKGNLLRHIKL [46F_47K_49E_50Q_52G_53A_54Q_55F_67L_, Q9UKT9]", "Assay Result": -2.76}

q: log2 fold change of degron read counts for FGCNQCGHIFTQKGNLLRHIKL [46F_47G_49N_50Q_52G_53H_54I_55F_67L_, Q9UKT9] ?
a: -1.45

q: log2 fold change of degron read counts for FVCPQCGASFTQKGNLLRHIKL [46F_47V_49P_50Q_52G_53A_54S_55F_67L_, Q9UKT9] ?
a: -1.71

q: log2 fold change of degron read counts for FECPICGAQFTQKGNLLRHIKL [46F_47E_49P_50I_52G_53A_54Q_55F_67L_, Q9UKT9] ?
a: -0.254

q: log2 fold change of degron read counts for FRCNICGAVFTQKGNLLRHIKL [46F_47R_49N_50I_52G_53A_54V_55F_67L_, Q9UKT9] ?
a: -1.72

q: log2 fold change of degron read counts for FRCPICGAQFTQKGNLLRHIKL [46F_47R_49P_50I_52G_53A_54Q_55F_67L_, Q9UKT9] ?
a: -0.000477

q: log2 fold change of degron read counts for FSCPICGAQFTQKGNLLRHIKL [46F_47S_49P_50I_52G_53A_54Q_55F_67L_, Q9UKT9] ?
a: 2.37

q: log2 fold change of degron read counts for FYCPICGAQFTQKGNLLRHIKL [46F_47Y_49P_50I_52G_53A_54Q_55F_67L_, Q9UKT9] ?
a: 3.2
